List of reverse-splicing fitness values.
B1: Azoarcus group I ribozyme (parent)
chain: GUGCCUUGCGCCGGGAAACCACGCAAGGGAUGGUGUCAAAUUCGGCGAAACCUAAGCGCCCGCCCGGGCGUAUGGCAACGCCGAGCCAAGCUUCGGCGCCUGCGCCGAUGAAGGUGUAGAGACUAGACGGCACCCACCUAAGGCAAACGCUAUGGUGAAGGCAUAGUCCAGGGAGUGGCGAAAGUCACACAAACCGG

Variants of: B1
Test: reverse-splicing fitness (ratio to wild type); higher = more active; in vitro selection; Mg2+ level not given
Please respond with just the number, no unit label.

Mutation annotation	reverse-splicing fitness
C82A A111C A120G A145C C150U C169G U176C	0.0133
C82A A111G A120G A145G C150G C169U U176C	0.0133
C82G A111G A120C A145U C150G U176G	0.00435
A111U A120G A145U C169A U176A	0.0201
C82U A120G A145C C150G C169A U176A	0.00717

Look at this variant and give its reported reverse-splicing fitness. A111U A120G A145C C150G C169A
0.0154

# repeat for C82G A111C A120C A145G C150G C169G
0.00708

# repeat for C82A A111C A120C A145U C150A C169G
0.00824

# repeat for C82A A111G A120U A145G C150A C169U U176C
0.00493

# repeat for A111G A120C A145G C150A U176A
0.0804

# repeat for C82A A111G A120U A145U C150U C169A U176A
0.00237
